Target: Interstitial collagenase (Homo sapiens, UniProt P03956)
Sequence (P03956 whole entry): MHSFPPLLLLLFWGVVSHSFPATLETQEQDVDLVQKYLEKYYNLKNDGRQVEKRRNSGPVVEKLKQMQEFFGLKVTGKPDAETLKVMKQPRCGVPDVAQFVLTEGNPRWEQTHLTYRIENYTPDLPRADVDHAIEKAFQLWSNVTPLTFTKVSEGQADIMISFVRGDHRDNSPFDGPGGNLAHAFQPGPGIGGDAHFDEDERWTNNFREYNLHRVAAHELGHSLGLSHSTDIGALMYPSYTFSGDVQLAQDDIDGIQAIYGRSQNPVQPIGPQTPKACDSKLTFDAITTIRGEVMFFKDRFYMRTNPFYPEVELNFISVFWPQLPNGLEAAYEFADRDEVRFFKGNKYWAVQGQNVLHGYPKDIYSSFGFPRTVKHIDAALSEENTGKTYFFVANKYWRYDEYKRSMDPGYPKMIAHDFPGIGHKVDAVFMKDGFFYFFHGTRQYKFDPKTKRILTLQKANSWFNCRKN
pKi: −log10 of the molar value.
Measurement name: pKi

O=C(O)CN(Cc1ccc([N+](=O)[O-])cc1)S(=O)(=O)c1cccc(NC(=O)NS(=O)(=O)c2ccc(F)cc2)c1
< 7.00
Cc1ccc(S(=O)(=O)NC(=O)Nc2cccc(S(=O)(=O)N(CC(=O)O)Cc3ccc([N+](=O)[O-])cc3)c2)cc1
< 7.00

Q. Give pKi for this entry on Interstitial collagenase (Homo sapiens, UniProt P03956): "O=C(CN(Cc1ccc([N+](=O)[O-])cc1)C(=O)Nc1cccc2ccccc12)NO"
A. < 7.00
